Values from paper PMC8704606

- assay notes: Pharmacokinetics and metabolism after iv and po administration
- Type: in vivo
- assay setup: male, C57/BL6, mouse, plasma, po, 50 mg/kg, 1 h after po 50 mg/kg artemiside 5; read-out: Mean po circulating concentration
# concentration at 1 h listing for each entry below
recorded metric: concentration at 1 h (nM)

INSERT INTO assay_data (molecule, endpoint_value) VALUES
  ('C[C@H]1[C@H](N2CC[S+]([O-])CC2)O[C@@H]2O[C@@]3(C)CC[C@H]4[C@H](C)CC[C@@H]1[C@@]24OO3 [Artemisox 6, Artemisox]', 2030),
  ('C[C@H]1[C@H](N2CCS(=O)(=O)CC2)O[C@@H]2O[C@@]3(C)CC[C@H]4[C@H](C)CC[C@@H]1[C@@]24OO3 [Artemisone 7, Artemisone]', 1670),
  ('C[C@H]1[C@H](N2CCSCC2)O[C@@H]2O[C@@]3(C)CC[C@H]4[C@H](C)CC[C@@H]1[C@@]24OO3 [Artemiside 5, Artemiside]', 119);

###

Reported values of concentration at 0.5 h for individual entries
- assay notes: Pharmacokinetics and metabolism after iv and po administration
- Format: in vivo
- assay setup: male, C57/BL6, mouse, plasma, iv, 5 mg/kg, 0.5 h after iv 5 mg/kg artemisox 6; read-out: Mean iv circulating concentration
recorded metric: concentration at 0.5 h (nM)

INSERT INTO measurements (given_smiles, endpoint_value) VALUES
  ('C[C@H]1[C@H](N2CCS(=O)(=O)CC2)O[C@@H]2O[C@@]3(C)CC[C@H]4[C@H](C)CC[C@@H]1[C@@]24OO3', 1250),
  ('C[C@H]1[C@H](N2CC[S+]([O-])CC2)O[C@@H]2O[C@@]3(C)CC[C@H]4[C@H](C)CC[C@@H]1[C@@]24OO3', 1920);

###

- assay notes: Pharmacokinetics and metabolism after iv and po administration
- Type: in vivo
- assay setup: male, C57/BL6, mouse, plasma, iv, 5 mg/kg, 0.08 h after iv 5 mg/kg artemisone 7; read-out: Mean iv circulating concentration
recorded metric: concentration at 0.08 h (µM)

INSERT INTO results (given_smiles, recorded_metric, endpoint_unit, endpoint_value) VALUES
  ('C[C@H]1[C@H](N2CCS(=O)(=O)CC2)O[C@@H]2O[C@@]3(C)CC[C@H]4[C@H](C)CC[C@@H]1[C@@]24OO3', 'concentration at 0.08 h', 'µM', 3.86);

###

- assay notes: Pharmacokinetics and metabolism after iv and po administration
- Format: in vivo
- assay setup: male, C57/BL6, mouse, plasma, po, 50 mg/kg, 7 h after po 50 mg/kg artemisox 6; read-out: Mean po circulating concentration
recorded metric: concentration at 7 h (nM)

INSERT INTO measurements (given_smiles, endpoint_value) VALUES
  ('C[C@H]1[C@H](N2CC[S+]([O-])CC2)O[C@@H]2O[C@@]3(C)CC[C@H]4[C@H](C)CC[C@@H]1[C@@]24OO3', 4);

###

# AUC(0-t) annotations
- assay notes: Pharmacokinetics and metabolism after iv and po administration
- Assay type: in vivo
- assay setup: male, C57/BL6, mouse, plasma; iv 5 mg/kg, parent drug; up to 7 h
recorded metric: AUC(0-t) (µM·h)

INSERT INTO assay_data (compound, recorded_metric, endpoint_value) VALUES
  ('C[C@H]1[C@H](N2CC[S+]([O-])CC2)O[C@@H]2O[C@@]3(C)CC[C@H]4[C@H](C)CC[C@@H]1[C@@]24OO3 [Artemisox 6, Artemisox]', 'AUC(0-t)', 2),
  ('C[C@H]1[C@H](N2CCSCC2)O[C@@H]2O[C@@]3(C)CC[C@H]4[C@H](C)CC[C@@H]1[C@@]24OO3 [Artemiside 5, Artemiside]', 'AUC(0-t)', 3.8),
  ('C[C@H]1[C@H](N2CCS(=O)(=O)CC2)O[C@@H]2O[C@@]3(C)CC[C@H]4[C@H](C)CC[C@@H]1[C@@]24OO3 [Artemisone 7, Artemisone]', 'AUC(0-t)', 2.4);

###

- assay notes: Pharmacokinetics and metabolism after iv and po administration
- Type: in vivo
- assay setup: male, C57/BL6, mouse, plasma, po, 50 mg/kg, 7 h after po 50 mg/kg artemiside 5; read-out: Mean po circulating concentration
Measured concentration at 7 h accompanies every entry in the list below.
recorded metric: concentration at 7 h (nM)

INSERT INTO measurements (compound, recorded_metric, endpoint_value) VALUES
  ('C[C@H]1[C@H](N2CCSCC2)O[C@@H]2O[C@@]3(C)CC[C@H]4[C@H](C)CC[C@@H]1[C@@]24OO3 [Artemiside 5, Artemiside]', 'concentration at 7 h', 6),
  ('C[C@H]1[C@H](N2CC[S+]([O-])CC2)O[C@@H]2O[C@@]3(C)CC[C@H]4[C@H](C)CC[C@@H]1[C@@]24OO3', 'concentration at 7 h', 5);

###

Each entry below carries its reported concentration at 5 h.
- assay notes: Pharmacokinetics and metabolism after iv and po administration
- Assay type: in vivo
- assay setup: male, C57/BL6, mouse, plasma, po, 50 mg/kg, 5 h after po 50 mg/kg artemisox 6; read-out: Mean po circulating concentration
recorded metric: concentration at 5 h

INSERT INTO measurements (molecule, recorded_metric, endpoint_value) VALUES
  ('C[C@H]1[C@H](N2CC[S+]([O-])CC2)O[C@@H]2O[C@@]3(C)CC[C@H]4[C@H](C)CC[C@@H]1[C@@]24OO3 [Artemisox 6, Artemisox]', 'concentration at 5 h', '5 nM'),
  ('C[C@H]1[C@H](N2CCS(=O)(=O)CC2)O[C@@H]2O[C@@]3(C)CC[C@H]4[C@H](C)CC[C@@H]1[C@@]24OO3 [Artemisone 7, Artemisone]', 'concentration at 5 h', '7 nM');

###

- assay notes: Pharmacokinetics and metabolism after iv and po administration
- Format: in vivo
- assay setup: male, C57/BL6, mouse, plasma, po, 50 mg/kg, 0.25 h after po 50 mg/kg artemiside 5; read-out: Mean po circulating concentration
recorded metric: concentration at 0.25 h (nM)

INSERT INTO measurements (molecule, recorded_metric, endpoint_value) VALUES
  ('C[C@H]1[C@H](N2CCS(=O)(=O)CC2)O[C@@H]2O[C@@]3(C)CC[C@H]4[C@H](C)CC[C@@H]1[C@@]24OO3', 'concentration at 0.25 h', 1390),
  ('C[C@H]1[C@H](N2CCSCC2)O[C@@H]2O[C@@]3(C)CC[C@H]4[C@H](C)CC[C@@H]1[C@@]24OO3 [Artemiside 5, Artemiside]', 'concentration at 0.25 h', 109),
  ('C[C@H]1[C@H](N2CC[S+]([O-])CC2)O[C@@H]2O[C@@]3(C)CC[C@H]4[C@H](C)CC[C@@H]1[C@@]24OO3', 'concentration at 0.25 h', 2150);

###

Listed here: items and their measured concentration at 0.08 h.
- assay notes: Pharmacokinetics and metabolism after iv and po administration
- Format: in vivo
- assay setup: male, C57/BL6, mouse, plasma, po, 50 mg/kg, 0.08 h after po 50 mg/kg artemisox 6; read-out: Mean po circulating concentration
recorded metric: concentration at 0.08 h (µM)

INSERT INTO measurements (given_smiles, recorded_metric, endpoint_value) VALUES
  ('C[C@H]1[C@H](N2CC[S+]([O-])CC2)O[C@@H]2O[C@@]3(C)CC[C@H]4[C@H](C)CC[C@@H]1[C@@]24OO3', 'concentration at 0.08 h', 3.04),
  ('C[C@H]1[C@H](N2CCS(=O)(=O)CC2)O[C@@H]2O[C@@]3(C)CC[C@H]4[C@H](C)CC[C@@H]1[C@@]24OO3', 'concentration at 0.08 h', 3.64);

###

- assay notes: Pharmacokinetics and metabolism after iv and po administration
- Format: in vivo
- assay setup: male, C57/BL6, mouse, plasma, iv, 5 mg/kg, 0.08 h after iv 5 mg/kg artemiside 5; read-out: Mean iv circulating concentration
recorded metric: concentration at 0.08 h

INSERT INTO results (compound, recorded_metric, endpoint_value) VALUES
  ('C[C@H]1[C@H](N2CCSCC2)O[C@@H]2O[C@@]3(C)CC[C@H]4[C@H](C)CC[C@@H]1[C@@]24OO3 [Artemiside 5, Artemiside]', 'concentration at 0.08 h', '6240 nM'),
  ('C[C@H]1[C@H](N2CCS(=O)(=O)CC2)O[C@@H]2O[C@@]3(C)CC[C@H]4[C@H](C)CC[C@@H]1[C@@]24OO3', 'concentration at 0.08 h', '117 nM'),
  ('C[C@H]1[C@H](N2CC[S+]([O-])CC2)O[C@@H]2O[C@@]3(C)CC[C@H]4[C@H](C)CC[C@@H]1[C@@]24OO3', 'concentration at 0.08 h', '1930 nM');
